Source: ChEMBL document CHEMBL6103645

This section presents compounds with their documented hemolysis at 2 h, 100 µM values.
experimental_details: Hemolytic activity in BALB/c mouse Red blood cells assessed as hemolysis at 10 to 100 uM incubated for 2 hrs
Format: toxicity, cell-based, Erythrocyte
measurement_setup: dose 10-100 µM, read-out: Activity

Previously resolved entries follow.
# smiles_text, hemolysis at 2 h, 100 µM
rows = [
    ("COc1ccc([Se]c2c(-c3ccccc3)ncc3ccccc23)cc1", "< 1%"),
    ("COc1ccc([Se]c2c(-c3ccccc3)ncc3cccnc23)cc1", "< 1%"),
]

Which hemolysis at 2 h, 100 µM value belongs to COc1ccc([Se]c2c(-c3ccccc3)ncc3ccc(OC)cc23)cc1 ?
< 1%
